Target: human HPK1 (MAP4K1) (Homo sapiens (Human))
Assay: HPK1 IC50 Assay (TR-FRET biochemical kinase assay, STK S1 peptide substrate)
Details: recombinant human HPK1 kinase domain 0.15 nM, 10 μM ATP, 1 μM STK S1 peptide; geometric mean
Measured Attribute: IC50 (nM)

>>> value_measured("CC(C)n1cnc2cc(-c3ccc4c(c3)N([C@H]3C[C@@H](N5CCCCC5)C3)C(=O)C43CCN(C4COC4)CC3)nc(Nc3ccncc3F)c21 [Example 174]")
0.5
>>> value_measured("CC(C)n1cnc2cc(-c3ccc4c(c3)N([C@H]3C[C@@H](N5CCCCC5)C3)C(=O)C43CCN(C(=O)C4CC4)CC3)nc(Nc3ccncc3F)c21 [Example 143]")
0.3

P = Cc1cc(Nc2nc(-c3ccc4c(c3)N([C@H]3C[C@@H](N5CCC(C)(C)C5)C3)C(=O)C43CCN(C(=O)C(C)(C)CO)CC3)cc3ncn(C(C)C)c23)c(F)cn1 [Example 131]
Q = CCn1cnc2cc(-c3ccc4c(c3)N([C@H]3C[C@@H](N5CCCCC5)C3)C(=O)C43CCN(C(=O)C(C)C)CC3)nc(Nc3ccncc3F)c21 [Example 148]
R = COC(C)(C)C(=O)N1CCC2(CC1)C(=O)N([C@H]1C[C@@H](N3CCCCC3)C1)c1cc(-c3cc4ncn(C(C)C)c4c(Nc4ccncc4F)n3)ccc12 [Example 145]
Asked: Returns the items ordered by IC50, from maximum to minimum. # respond with the labels, arranged in the requested order
Given back: Q, P, R
(Q: 1.3 nM, P: 0.6 nM, R: 0.4 nM)

I = CC(C)n1cnc2cc(-c3ccc4c(c3)N([C@H]3C[C@@H](N5CC[C@@H](C)C5)C3)C(=O)C4(C)C)nc(Nc3ccncc3F)c21 [Example 192]
II = CC(C)n1cnc2cc(-c3ccc4c(c3)N([C@H]3C[C@@H](N5CCCC6(CC6)C5)C3)C(=O)C43CCN(C(=O)C(C)(C)CO)CC3)nc(Nc3ccncc3F)c21 [Example 122]
Asked: API: POST /compare with I and II ; response names the item with higher IC50. State the label of the item chosen.
Given back: I

P = CC(C)n1cnc2cc(-c3ccc4c(c3)N([C@H]3C[C@@H](N5CCCCC5)C3)C(=O)C43CCN(C(=O)C(C)(C)CF)CC3)nc(Nc3ccncc3F)c21 [Example 139]
Q = CC(C)n1cnc2cc(-c3ccc4c(c3)N([C@H]3C[C@@H](N5C[C@H]6CC[C@H]6C5)C3)C(=O)C43CCN(C(=O)C4(C)COC4)CC3)nc(Nc3ccncc3F)c21 [Example 110]
R = CC(C)n1cnc2cc(-c3ccc4c(c3)N([C@H]3C[C@@H](N5CC(C)(C)C5)C3)C(=O)C4(C)C)nc(Nc3cc(CO)ncc3F)c21 [Example 100]
S = CC(=O)N1CCC2(CC1)C(=O)N([C@H]1C[C@@H](N3CCCCC3)C1)c1cc(-c3cc4ncn(C(C)C)c4c(Nc4cc(N(C)C)ncc4F)n3)ccc12 [Example 99]
T = COC1(C(=O)N2CCC3(CC2)C(=O)N([C@H]2C[C@@H](N4CCCCC4)C2)c2cc(-c4cc5ncn(C(C)C)c5c(Nc5ccncc5F)n4)ccc23)CCC1 [Example 107]
Asked: Returns the items ordered by IC50, from maximum to minimum. # respond with the labels, arranged in the requested order
Given back: R, S, P, T, Q

1 = Cc1cc(Nc2nc(-c3ccc4c(c3)N([C@H]3C[C@@H](N5CCCCC5)C3)C(=O)C43CCN(C(=O)C4(C)COC4)CC3)cc3ncn(C(C)C)c23)c(F)cn1 [Example 129]
2 = CC[C@H](O)C(=O)N1CCC2(CC1)C(=O)N([C@H]1C[C@@H](N3CCC(C)(C)C3)C1)c1cc(-c3cc4ncn(C(C)C)c4c(Nc4ccncc4F)n3)ccc12 [Example 116]
3 = Cc1cc(Nc2nc(-c3ccc4c(c3)N([C@H]3C[C@@H](N5CCC(C)(C)C5)C3)C(=O)C43CCN(C(=O)C4CCO4)CC3)cc3ncn(C(C)C)c23)c(F)cn1 (stereo partly shown) [Example 133]
4 = CC(C)n1cnc2cc(-c3ccc4c(c3)N([C@H]3C[C@@H](N5CCC(C)(C)C5)C3)C(=O)C43CCN(C(=O)C4(C)COC4)CC3)nc(Nc3cc(Cl)ncc3F)c21 [Example 130]
5 = CCC(=O)N1CCC2(CC1)C(=O)N([C@H]1C[C@@H](N3CCCCC3)C1)c1cc(-c3cc4ncn(CC)c4c(Nc4ccncc4F)n3)ccc12 [Example 168]
Asked: // ascending sort on recorded IC50 # respond with the labels, arranged in the requested order
Given back: 3, 2, 1, 4, 5

* * *

Target: human HPK1 (MAP4K1) (Homo sapiens (Human), UniProt Q92918)
Sequence (Q92918 17-274): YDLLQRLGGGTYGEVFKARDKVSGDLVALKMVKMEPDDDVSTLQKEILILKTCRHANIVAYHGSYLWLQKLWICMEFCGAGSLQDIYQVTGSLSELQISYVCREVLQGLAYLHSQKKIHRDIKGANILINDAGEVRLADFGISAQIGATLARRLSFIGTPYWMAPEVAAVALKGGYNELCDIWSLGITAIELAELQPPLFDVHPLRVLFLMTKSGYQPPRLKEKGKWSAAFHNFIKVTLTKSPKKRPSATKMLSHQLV
Test: HPK1 IC50 Assay (TR-FRET biochemical kinase assay, STK S1 peptide substrate)
Conditions: recombinant human HPK1 kinase domain 0.15 nM, 10 μM ATP, 1 μM STK S1 peptide; geometric mean
Measured Attribute: IC50 (nM)

Record excerpt, results attached:
>>> value_measured("CC[C@@H](O)C(=O)N1CCC2(CC1)C(=O)N([C@H]1C[C@@H](N3CCC(C)(C)C3)C1)c1cc(-c3cc4ncn(C(C)C)c4c(Nc4ccncc4F)n3)ccc12")
0.2
>>> value_measured("CC(=O)N1CCC2(CC1)C(=O)N([C@H]1C[C@@H](N3CCCC[C@@H]3C)C1)c1cc(-c3cc4ncn(C(C)C)c4c(Nc4ccncc4F)n3)ccc12")
0.7
>>> value_measured("CC(C)n1cnc2cc(-c3ccc4c(c3)N([C@H]3C[C@@H](N5C6COCC5C6)C3)C(=O)C4(C)C)nc(Nc3ccncc3F)c21")
2.1

I = CC(C)n1cnc2cc(-c3ccc4c(c3)N([C@H]3C[C@@H](N5CCC(C)(C)C5)C3)C(=O)C43CCN(C(=O)c4cnco4)CC3)nc(Nc3ccncc3F)c21
II = CC(=O)N1CCC2(CC1)C(=O)N([C@H]1C[C@@H](N3CC4CCC(C4)C3)C1)c1cc(-c3cc4ncn(C(C)C)c4c(Nc4cc(C)ncc4F)n3)ccc12
Asked: API: POST /compare with I and II ; response names the item with higher IC50. State the label of the item chosen.
Given back: I

* * *

Biological target: human HPK1 (MAP4K1) (Homo sapiens (Human), UniProt Q92918)
Test: HPK1 IC50 Assay (TR-FRET biochemical kinase assay, STK S1 peptide substrate)
Settings: recombinant human HPK1 kinase domain 0.15 nM, 10 μM ATP, 1 μM STK S1 peptide; geometric mean
Measured Attribute: IC50 (nM)

a = CC(C)n1cnc2cc(-c3ccc4c(c3)N([C@H]3C[C@@H](N5CCCCC5)C3)C(=O)C43CCN(C(=O)C(C)(C)C)CC3)nc(Nc3ccncc3F)c21 [Example 170]
b = CC(C)n1cnc2cc(-c3ccc4c(c3)N([C@H]3C[C@@H](N5C[C@H]6CC[C@H]6C5)C3)C(=O)C43CCN(C(=O)C(C)(C)CO)CC3)nc(Nc3ccncc3F)c21 [Example 112]
Asked: API: POST /compare with a and b ; response names the item with higher IC50. State the label of the item chosen.
Given back: a

* * *

Molecular target: human HPK1 (MAP4K1) (Homo sapiens (Human))
Experiment: HPK1 IC50 Assay (TR-FRET biochemical kinase assay, STK S1 peptide substrate)
Conditions: recombinant human HPK1 kinase domain 0.15 nM, 10 μM ATP, 1 μM STK S1 peptide; geometric mean of multiple experiments
Measured Attribute: IC50 (nM)

>>> value_measured("CCn1cnc2cc(-c3ccc4c(c3)N([C@H]3C[C@@H](N5CCC(C)(C)C5)C3)C(=O)C43CCN(C4COC4)CC3)nc(Nc3ccncc3F)c21")
0.7

A = CC(C)n1cnc2cc(-c3ccc4c(c3)N([C@H]3C[C@@H](N5CCCCCC5)C3)C(=O)C4(C)C)nc(Nc3ccncc3F)c21
B = CC(C)n1cnc2cc(-c3ccc4c(c3)N([C@H]3C[C@@H](N5C[C@H]6CC[C@@H]5C6)C3)C(=O)C4(C)C)nc(Nc3ccncc3F)c21
C = CC(C)n1cnc2cc(-c3ccc4c(c3)N([C@H]3C[C@@H](N5CCCCC5)C3)C(=O)[C@@]4(C)O)nc(Nc3ccncc3F)c21 [Example 55A]
D = CC(C)n1cnc2cc(-c3ccc4c(c3)N([C@H]3C[C@@H](N5CCC(C)(C)C5)C3)C(=O)C43CCN(C(=O)CC4COC4)CC3)nc(Nc3ccncc3F)c21
Asked: // ascending sort on recorded IC50 # respond with the labels, arranged in the requested order
Given back: A, D, B, C
(A: 0.09 nM, D: 0.4 nM, B: 0.7 nM, C: 1.2 nM)

* * *

Biological target: human HPK1 (MAP4K1) (Homo sapiens (Human))
Assay: HPK1 IC50 Assay (TR-FRET biochemical kinase assay, STK S1 peptide substrate)
Details: recombinant human HPK1 kinase domain 0.15 nM, 10 μM ATP, 1 μM STK S1 peptide; geometric mean of multiple experiments
pIC50: −log10 of the molar value.
Measured Attribute: pIC50

Record excerpt, results attached:
>>> value_measured("CC(C)n1cnc2cc(-c3ccc4c(c3)N([C@H]3C[C@@H](N5CCCCC5)C3)C(=O)C43CCN(C(=O)C4(C)CC4)CC3)nc(Nc3ccncc3F)c21 [Example 27]")
9.30
>>> value_measured("CC(C)n1cnc2cc(-c3ccc4c(c3)N([C@H]3C[C@@H](N5C[C@@H](C)[C@@H](C)C5)C3)C(=O)C4(C)C)nc(Nc3ccncc3F)c21 [Example 57]")
9.40
>>> value_measured("CC(C)n1cnc2cc(-c3ccc4c(c3)N([C@H]3C[C@@H](N5CC(F)C6(CC6)C5)C3)C(=O)C43CCN(C4COC4)CC3)nc(Nc3ccncc3F)c21 (some centres unmarked) [Example 49]")
9.30
>>> value_measured("CC(C)n1cnc2cc(-c3ccc4c(c3)N([C@H]3C[C@@H](N5CCCC6(CC6)C5)C3)C(=O)C43CCN(C(=O)[C@@H](C)O)CC3)nc(Nc3ccncc3F)c21 [Example 36]")
9.52
>>> value_measured("CC(C)n1cnc2cc(-c3ccc4c(c3)N([C@H]3C[C@@H](N5C[C@@H](C)[C@@H](C)C5)C3)C(=O)C43CCN(C(=O)C4(C)COC4)CC3)nc(Nc3ccncc3F)c21 [Example 8]")
9.70
>>> value_measured("CC(C)n1cnc2cc(-c3ccc4c(c3)N([C@H]3C[C@@H](N5CC6C(C5)C6(C)C)C3)C(=O)C4(C)C)nc(Nc3ccncc3F)c21 (some centres unmarked) [Example 60]")
9.52
>>> value_measured("CC(C)n1cnc2cc(-c3ccc4c(c3)N([C@H]3C[C@@H](N5CCC(C)(C)C5)C3)C(=O)C43CCN(C(=O)C(C)(C)O)CC3)nc(Nc3ccncc3F)c21 [Example 4]")
9.40
>>> value_measured("CC(C)n1cnc2cc(-c3ccc4c(c3)N([C@H]3C[C@@H](N5CCC(C)(C)C5)C3)C(=O)C43CCN(C(=O)C4CCCCO4)CC3)nc(Nc3ccncc3F)c21 (some centres unmarked) [Example 24]")
10.05

A = Cc1cc(Nc2nc(-c3ccc4c(c3)N([C@H]3C[C@@H](N5CCCCC5)C3)C(=O)C4(C)C)cc3ncn(C(C)C)c23)c(F)cn1 [Example 54]
B = CCn1cnc2cc(-c3ccc4c(c3)N([C@H]3C[C@@H](N5CCCCC5)C3)C(=O)C43CCN(C(=O)[C@@H](C)O)CC3)nc(Nc3ccc(F)nc3F)c21 [Example 73]
Asked: Select the item whose pIC50 value is smaller, choosing between A and B . State the label of the item chosen.
Given back: A
(A: 8.82, B: 9.70)

1 = CC(C)n1cnc2cc(-c3ccc4c(c3)N([C@H]3C[C@@H](N5C[C@@H](C)[C@@H](C)C5)C3)C(=O)C43CCN(C(=O)[C@@H]4CCCO4)CC3)nc(Nc3ccncc3F)c21 [Example 9]
2 = CC(C)CN[C@H]1C[C@@H](N2C(=O)C(C)(C)c3ccc(-c4cc5ncn(C(C)C)c5c(Nc5ccncc5F)n4)cc32)C1 [Example 84]
3 = CC(=O)N1CCC2(CC1)C(=O)N([C@H]1C[C@@H](N3CCCCC3)C1)c1cc(-c3cc4ncn(C(C)C)c4c(Nc4cc(C(=O)NC(C)C)ncc4F)n3)ccc12 [Example 74]
Asked: // ascending sort on recorded pIC50 # respond with the labels, arranged in the requested order
Given back: 3, 2, 1
(3: 8.18, 2: 8.77, 1: 9.70)
